target: 5-Lipoxygenase from HWBL-1 20,000 xg Supernatant (Rattus norvegicus, UniProt P12527); construct: 20,000 xg supernatant from 1.5 million homogenized HWBL-1 cells; endogenous in cells; assay: 5-lipoxygenase inhibition, 20,000 xg supernatant of homogenized HWBL-1 cells, radiolabeled arachidonic acid; format: biochemical; details: read-out: IC50 (in vitro inhibitory potency against 5-lipoxygenase)
Sequence (P12527 whole entry): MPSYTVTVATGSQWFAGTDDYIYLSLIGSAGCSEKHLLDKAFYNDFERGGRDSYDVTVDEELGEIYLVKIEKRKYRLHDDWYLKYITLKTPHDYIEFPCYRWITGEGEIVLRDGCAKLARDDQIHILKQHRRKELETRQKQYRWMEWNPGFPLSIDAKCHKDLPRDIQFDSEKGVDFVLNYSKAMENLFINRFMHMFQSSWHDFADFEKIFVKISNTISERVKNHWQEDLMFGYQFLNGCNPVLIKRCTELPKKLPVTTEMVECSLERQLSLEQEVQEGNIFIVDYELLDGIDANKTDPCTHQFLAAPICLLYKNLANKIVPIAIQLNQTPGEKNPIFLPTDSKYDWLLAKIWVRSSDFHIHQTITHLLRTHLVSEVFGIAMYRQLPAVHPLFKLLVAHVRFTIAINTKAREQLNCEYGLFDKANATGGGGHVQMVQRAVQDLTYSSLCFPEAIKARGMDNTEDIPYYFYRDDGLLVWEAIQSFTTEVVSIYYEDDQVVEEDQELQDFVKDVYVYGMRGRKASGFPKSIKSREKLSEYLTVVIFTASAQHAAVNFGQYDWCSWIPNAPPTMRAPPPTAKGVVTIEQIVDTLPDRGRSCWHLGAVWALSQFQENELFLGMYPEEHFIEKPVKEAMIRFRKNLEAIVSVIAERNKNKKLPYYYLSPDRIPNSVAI
ASSAY METRIC: pIC50
In textbook form, pIC50 equals minus log to base ten of the concentration in mol/L.

# lookup: "COc1ccc(C(=O)NCCN(O)C(N)=O)cc1" on 5-Lipoxygenase from HWBL-1 20,000 xg Supernatant (Rattus norvegicus, UniProt P12527), pIC50 = 5.30

# lookup: "NC(=O)N(O)CCNC(=O)c1cccn1Cc1ccc(Cl)cc1" on 5-Lipoxygenase from HWBL-1 20,000 xg Supernatant (Rattus norvegicus, UniProt P12527), pIC50 = 6.54

# lookup: "NC(=O)N(O)CCNC(=O)c1csc(-c2ccccc2)n1" on 5-Lipoxygenase from HWBL-1 20,000 xg Supernatant (Rattus norvegicus, UniProt P12527), pIC50 = 6.03

# lookup: "CN(C(=O)CN(O)C(N)=O)c1ccc(Oc2ccccc2)cc1" on 5-Lipoxygenase from HWBL-1 20,000 xg Supernatant (Rattus norvegicus, UniProt P12527), pIC50 = 5.24

# lookup: "NC(=O)N(O)CCNC(=O)c1cccc(Oc2cc(Cl)cc(Cl)c2)c1" on 5-Lipoxygenase from HWBL-1 20,000 xg Supernatant (Rattus norvegicus, UniProt P12527), pIC50 = 6.47
